Format: in vivo, CD1 athymic nude mice
Conditions: CD1 athymic nude, mouse, brain extracellular fluid (microdialysate) / plasma, iv, 4 mg/kg, Pbrain (brain ECF-to-plasma AUC ratio of unbound topotecan lactone), non-tumor-bearing CD1 nude mice, 4 mg/kg i.v., mean ± SD, n=7
parameter.measured: Kp

smiles.structure: CC[C@@]1(O)C(=O)OCc2c1cc1n(c2=O)Cc2cc3c(CN(C)C)c(O)ccc3nc2-1
endpoint.value: 0.3
